Target: DNA repair and recombination protein RAD54-like (Homo sapiens, UniProt Q92698)
Sequence (Q92698 whole entry): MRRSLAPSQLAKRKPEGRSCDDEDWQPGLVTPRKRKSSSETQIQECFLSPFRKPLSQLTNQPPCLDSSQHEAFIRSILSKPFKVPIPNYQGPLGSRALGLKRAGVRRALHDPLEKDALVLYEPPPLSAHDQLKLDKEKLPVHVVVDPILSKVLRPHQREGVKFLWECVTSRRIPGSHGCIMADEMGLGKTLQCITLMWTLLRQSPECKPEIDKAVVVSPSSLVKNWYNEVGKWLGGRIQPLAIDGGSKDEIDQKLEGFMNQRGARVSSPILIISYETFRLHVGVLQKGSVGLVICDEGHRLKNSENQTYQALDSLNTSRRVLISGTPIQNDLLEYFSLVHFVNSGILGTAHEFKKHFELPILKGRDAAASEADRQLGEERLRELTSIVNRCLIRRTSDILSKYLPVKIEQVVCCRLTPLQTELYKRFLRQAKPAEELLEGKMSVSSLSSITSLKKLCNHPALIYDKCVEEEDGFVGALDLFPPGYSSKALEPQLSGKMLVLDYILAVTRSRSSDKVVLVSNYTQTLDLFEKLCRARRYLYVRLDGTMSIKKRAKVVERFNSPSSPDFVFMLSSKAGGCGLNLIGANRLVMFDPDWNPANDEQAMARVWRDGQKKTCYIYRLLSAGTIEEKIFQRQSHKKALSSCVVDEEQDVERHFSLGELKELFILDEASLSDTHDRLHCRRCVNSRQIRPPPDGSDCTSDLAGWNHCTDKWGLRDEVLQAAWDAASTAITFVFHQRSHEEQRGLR
Test: inhibitors of human RAD54 branch migration, confirmation, biochemical, fluorescence, cherry-picked samples, dose series (AID 651657)
Assay type: functional
Activity calls are given as the source filed them. No stated cut-off is given here; in the data, active = AC50 of 100 µM or less and inactive = more.
recorded-metric: AC50

Solved cases below.
Problem: Look up AC50 with DNA repair and recombination protein RAD54-like (Homo sapiens, UniProt Q92698) for this compound: `Cc1nnc2c(N3CCN(CCO)CC3)nc3ccccc3n12`
Result: 57.7 µM (active)

Problem: Queued: `CN1CCN(CCCNC(=O)c2cc3c(=O)oc4ccccc4c3s2)CC1`
Result: 38.1 µM (active)

Problem: Queued: `CCCNc1nc2nc3ccccn3c(=O)c2cc1C(=O)NCCN1CCOCC1`
Result: 32.4 µM (active)

Further cases:
Problem: Look up AC50 with DNA repair and recombination protein RAD54-like (Homo sapiens, UniProt Q92698) for this compound: `CCN(CC)CCNC(=O)c1cc2cc3ccc(OC)cc3nc2o1`
Result: 40.7 µM (active)

Problem: Queued: `Cc1ccc(Nc2cc(C)nc3c(C)cccc23)cc1`
Result: 34.4 µM (active)

Problem: Queued: `Cn1nc(-c2ccccn2)nc2c(=O)n(C)c(=O)nc1-2`
Result: 1.22 µM (active)

Problem: Queued: `O=c1c2ccccc2oc2cc(NCCCN3CCOCC3)ccc12`
Result: 23.3 µM (active)
